Kindly state IC50 for each of the entries shown.
TARGET_UNDER_TEST: wild-type ALK2 (aa172-499) (Homo sapiens (Human), UniProt Q04771)
Sequence (Q04771 172-499): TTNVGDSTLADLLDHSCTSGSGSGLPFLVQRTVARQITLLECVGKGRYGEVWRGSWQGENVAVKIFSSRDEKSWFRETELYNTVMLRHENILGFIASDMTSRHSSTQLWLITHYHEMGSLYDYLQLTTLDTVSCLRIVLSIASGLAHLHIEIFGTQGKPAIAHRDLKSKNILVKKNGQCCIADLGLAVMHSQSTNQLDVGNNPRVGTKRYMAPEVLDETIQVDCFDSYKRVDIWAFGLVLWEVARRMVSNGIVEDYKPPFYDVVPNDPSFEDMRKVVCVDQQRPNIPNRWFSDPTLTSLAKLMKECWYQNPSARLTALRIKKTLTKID
EXPERIMENT: Caliper biochemical peptide phosphorylation assay, ALK2
STATED_CONDITIONS: Caliper peptide phosphorylation, 15 uM ATP; read-out: ALK2 IC50
Answers are plain numbers, in nM.

SMILES_STRING | EXPERIMENTAL_READOUT | ASSAY_VALUE
COc1cc(-c2cncc(-c3ccc4c(c3)CC(=O)N4C)c2)cn(C(C)C)c1=O | IC50 | 80
CC(C)N1C(=O)Cc2cc(-c3cncc(-c4ccc(=O)n(C(C)C)c4)c3)ccc21 | IC50 | 60
CC(C)n1cc(-c2cncc(-c3ccc4c(c3)N(C)C(=O)C4)c2)ccc1=O | IC50 | 470

# evaluate next
# IC50 of `CN1C(=O)Cc2cc(-c3cncc(-c4ccc(=O)n(CC5CCC5)c4)c3)ccc21` = 490
